Data origin: paper PMC10397247

# System Under Test: T1, 4H235-bN
# T1 chain: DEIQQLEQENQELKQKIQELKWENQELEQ
# Measurement Description: two-hybrid library CCNG1;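 further: natural log of median RNA to DNA barcode read ratio; higher means stronger binding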
Endpoint Label: interaction score

>>> result_number("DKIQQLEQENQELKQEIQELKWKIQELEQ [4H2253-bN]")
-0.204
>>> result_number("DEIQQLEQENQELEQKIQELEWKIQELKQ [4H166-bN]")
-0.365
>>> result_number("DENQQLKQENQELEQKIQELKWKIQELKQ [4H1710-bN]")
-2.91
>>> result_number("DEIQQLEQENQELKQKIQELKWENQELEQ [4H235-bN]")
0.562
>>> result_number("DKIQQLEQEIQELKQKNQELEWEIQELKQ [4H2162-bN]")
-0.0614
>>> result_number("DKIQQLEQEIQELKQENQELKWKNQELEQ [4H2143-bN]")
0.188
>>> result_number("DKIQQLEQENQELEQKNQELKWEIQELEQ [4H2233-bN]")
-0.762
